Assay Protocol: A549 lung cancer cell viability effects, profiling panel, resazurin fluorescence, 24 h, PK04 Diversity Set (AID 1171); further: test concentration not given here
Applied Conditions: higher = more signal, called active from +8 up or from −8 down
Threshold rule: z-score greater than or equal to -0.2 is Yes; below that, No.

| Compound | Category Label |
| --- | --- |
| O=C1C2C=CC(C(O)c3cc(C(F)(F)F)cc(C(F)(F)F)c3)N(Nc3ccccc3F)C2C(=O)N1c1ccccc1 (centres undefined) | No |
| COC(=O)C(CC#Cc1ccc2c(c1)[C@]1(C(=O)N2)[C@H](C(=O)Nc2nc3ccccc3s2)[C@H]2C(=O)O[C@H](c3ccccc3)[C@H](c3ccccc3)N2[C@@H]1c1ccc(OCCO)cc1)C(=O)OC | Yes |
| [N-]=[N+]=NCc1ccccc1[C@@H]1OC(c2ccc(OCCCO)cc2)=N[C@]1(Cc1ccccc1N=[N+]=[N-])C(=O)N1CCCCC1 | No |
| O=C1N[C@@H](Cc2ccccc2)C(=O)N2[C@@H]1C[C@@H](C(=O)O)[C@H]2c1ccc(O)cc1 | Yes |
| COCC1C2CC[C@H]3C(OCc4ccc(OC)cc4)OC[C@]4(C)[C@H]3C2=C(CN4C(=O)OC(C)(C)C)[C@H](C)C1COC (some centres undefined) | Yes |
| Cc1ccc(F)cc1S(=O)(=O)N[C@@H]1CCN(Cc2cccc3[nH]ccc23)C1 | No |
| O=C1c2ccccc2[C@](Cc2ccccc2I)(C(=O)NC2CC2)[C@H](c2ccc(CO)cc2)N1Cc1ccccc1C(F)(F)F | Yes |
| CN1C(=O)C2C(C1=O)C1C=C(CCCO)C2C(C2CC2)N1Cc1cc2c(cc1Br)OCO2 (centres undefined) | No |
| CC(C)[C@H]1NC(=O)[C@@]23C(=O)N[C@@H](Cc4ccccc4)C2[C@H](C)[C@@]2(C)O[C@H]2C3/C=C/CCC/C=C/CNC(=O)[C@H](Cc2ccccc2)NC1=O (some centres undefined) | No |
| [N-]=[N+]=Nc1ccccc1C[C@]1(C(=O)O)N=C(c2ccc(OCCCO)cc2)O[C@H]1c1ccccc1N=[N+]=[N-] | No |

Now take the following compound into account.
Could you tell me if the measured z-score of C=CCC(OC(C)=O)[C@@H]1[C@@H](N(Cc2cccc3ccccc23)C(=O)c2cccc3ccccc23)c2cc(OCCCO)ccc2N1C(=O)c1ccc2ccccc2c1 (some centres undefined) reaches -0.2 or more?
Yes

* * *

Tested on: Human papillomavirus type 1a E7 protein (residues 1-88)
Assay Protocol: HPV1a E7 small-molecule binders, primary screen, biochemical, small-molecule microarray, residues 1-88, 635 nm (AID 1129)
Applied Conditions: small-molecule microarray binding, fluorescence 635 nm; higher = more signal
Reported Endpoint: composite z-score
Field format: numeric only.

Worked cases, answers included:
| Compound | composite z-score |
| --- | --- |
| O=C1N(CCS(=O)(=O)c2ccccc2)Cc2ccccc2[C@@H]2OC(c3ccc(OCCCO)cc3)=N[C@]12CCS(=O)(=O)c1ccccc1 | 1.27 |
| NC(=O)[C@@H]1[C@H]2C(=O)O[C@H](c3ccccc3)[C@H](c3ccccc3)N2[C@H](c2ccc(OCCO)cc2)[C@@]12C(=O)Nc1ccc(C#CCCO)cc12 | 0.988 |
| O=C1O[C@H](c2ccccc2)[C@H](c2ccccc2)N2[C@H]1[C@@H](C(=O)N1CCCCCCC1)[C@]1(C(=O)Nc3ccc(C#CC4(O)CCCCCC4)cc31)[C@H]2c1ccc(O)cc1 | 1.22 |

Provide Human papillomavirus type 1a E7 protein (residues 1-88) composite z-score reading for COC(=O)[C@@]1(Cc2ccc(F)cc2)[C@H]2c3cc(C(=O)N(C)C)n(Cc4c(CO)[nH]cc(C)c4=O)c3C[C@H]2CN1C(=O)c1ccccc1 .
0.453

Provide Human papillomavirus type 1a E7 protein (residues 1-88) composite z-score reading for COCCOC(=O)N1C(=O)[C@@]2(c3cc(C#CC4(O)CCCCCC4)ccc31)[C@H](C(=O)N1CCN(c3ncccn3)CC1)[C@H]1C(=O)O[C@H](c3ccccc3)[C@H](c3ccccc3)N1[C@@H]2c1ccccc1OCCO .
1.18

Provide Human papillomavirus type 1a E7 protein (residues 1-88) composite z-score reading for CC(C)C[C@@H]1NC(=O)CNC(=O)[C@@]23C(=O)N[C@@H](Cc4ccccc4)C2[C@H](C)[C@@]2(C)O[C@H]2C3/C=C/C/C=C\CNC1=O (stereo partly specified) .
0.331
